molecular target: S. aureus sortase A (SrtAΔN59, residues 60-206) (Staphylococcus aureus, UniProt Q2FV99); assay: SrtA enzyme FRET inhibition assay (dose-response, recombinant sortase A with FRET peptide substrate containing the LPETG motif)
metric name: IC50

Data request: Which IC50 value is on record for CC12CC3(C)CC(O)(C1)CC(NC(=O)Cn1sc4ccccc4c1=O)(C2)C3 ?
Data returned: 3.9 µM
